meta.source: the supplement of paper PMC12406974

Listing: maximum observed lethal fraction of selected compounds
System: U2OS PTBP1-KO;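 also: FLICK assay: SYTOX Green fluorescence of dead cells tracked over time after drugging in 96-well plates, with total cell counts taken from Triton X-100 lysed wells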
Protocol notes: maximum observed lethal fraction; higher = more cell death
Settings: 0.316 µM

Recorded results for 6 compounds are shown here.
Provide the documented maximum observed lethal fraction with U2OS PTBP1-KO as the system for CC(=O)N[C@H]1[C@@H](O[C@@H]2O[C@H](CC(O)[C@H]3O[C@@H](n4ccc(=O)[nH]c4=O)[C@H](O)[C@@H]3O)[C@H](O)[C@H](O)[C@H]2NC(=O)/C=C/CC(C)C)O[C@H](CO)[C@@H](N)[C@@H]1O (some centres not stated) 0.0808

Provide the documented maximum observed lethal fraction with U2OS PTBP1-KO as the system for Cc1c2oc3c(C)ccc(C(=O)N[C@@H]4C(=O)N[C@H](C(C)C)C(=O)N5CCC[C@H]5C(=O)N(C)CC(=O)N(C)[C@@H](C(C)C)C(=O)O[C@@H]4C)c3nc-2c(C(=O)N[C@@H]2C(=O)N[C@H](C(C)C)C(=O)N3CCC[C@H]3C(=O)N(C)CC(=O)N(C)[C@@H](C(C)C)C(=O)O[C@@H]2C)c(N)c1=O 0.368

Provide the documented maximum observed lethal fraction with U2OS PTBP1-KO as the system for CN(C)C/C=C/C(=O)Nc1ccc(C(=O)Nc2cccc(Nc3ncc(Cl)c(-c4c[nH]c5ccccc45)n3)c2)cc1 0.33

Provide the documented maximum observed lethal fraction with U2OS PTBP1-KO as the system for CC1(C)CCC(c2ccc(Cl)cc2)=C(CN2CCN(c3ccc(C(=O)NS(=O)(=O)c4ccc(N[C@H](CCN5CCOCC5)CSc5ccccc5)c(S(=O)(=O)C(F)(F)F)c4)cc3)CC2)C1 0.0786

Provide the documented maximum observed lethal fraction with U2OS PTBP1-KO as the system for CC1(C)CCC(CN2CCN(c3ccc(C(=O)NS(=O)(=O)c4ccc(NCC5CCOCC5)c([N+](=O)[O-])c4)c(Oc4cnc5[nH]ccc5c4)c3)CC2)=C(c2ccc(Cl)cc2)C1 0.0635

Provide the documented maximum observed lethal fraction with U2OS PTBP1-KO as the system for COc1cc([C@@H]2c3cc4c(cc3[C@@H](O[C@@H]3O[C@@H]5CO[C@@H](c6cccs6)O[C@H]5[C@H](O)[C@H]3O)[C@H]3COC(=O)[C@H]23)OCO4)cc(OC)c1O [Teniposide] 0.0892

Others:
Provide the documented maximum observed lethal fraction with U2OS PTBP1-KO as the system for C#C[C@@]1(O)[C@@H](CO)O[C@@H](n2ccc(N)nc2=O)[C@@H]1O 0.0904

Provide the documented maximum observed lethal fraction with U2OS PTBP1-KO as the system for CC(C)C[C@H](NC(=O)[C@H](Cc1ccccc1)NC(=O)c1cnccn1)B(O)O 0.791

Provide the documented maximum observed lethal fraction with U2OS PTBP1-KO as the system for COc1ccc(C[C@H]2NC[C@H](O)[C@H]2OC(C)=O)cc1 0.174

Provide the documented maximum observed lethal fraction with U2OS PTBP1-KO as the system for CCN1CCN(Cc2ccc(Nc3ncc(F)c(-c4cc(F)c5nc(C)n(C(C)C)c5c4)n3)nc2)CC1 0.0922

Provide the documented maximum observed lethal fraction with U2OS PTBP1-KO as the system for CC(=O)c1c(C)c2cnc(Nc3ccc(N4CCNCC4)cn3)nc2n(C2CCCC2)c1=O 0.0802

Provide the documented maximum observed lethal fraction with U2OS PTBP1-KO as the system for CC[C@@]1(O)C(=O)OCc2c1cc1n(c2=O)Cc2cc3ccccc3nc2-1 0.0849
